Attribution: PubChem BioAssay AID1030

target: Aldehyde dehydrogenase 1A1 (Homo sapiens) (UniProt P00352); experiment: qHTS Assay for Inhibitors of Aldehyde Dehydrogenase 1 (ALDH1A1); conditions: Purified ALDH1A1, NADH fluorescence, propionaldehyde substrate; series mostly up to 75.3 µM
Sequence (P00352 whole entry, looked up): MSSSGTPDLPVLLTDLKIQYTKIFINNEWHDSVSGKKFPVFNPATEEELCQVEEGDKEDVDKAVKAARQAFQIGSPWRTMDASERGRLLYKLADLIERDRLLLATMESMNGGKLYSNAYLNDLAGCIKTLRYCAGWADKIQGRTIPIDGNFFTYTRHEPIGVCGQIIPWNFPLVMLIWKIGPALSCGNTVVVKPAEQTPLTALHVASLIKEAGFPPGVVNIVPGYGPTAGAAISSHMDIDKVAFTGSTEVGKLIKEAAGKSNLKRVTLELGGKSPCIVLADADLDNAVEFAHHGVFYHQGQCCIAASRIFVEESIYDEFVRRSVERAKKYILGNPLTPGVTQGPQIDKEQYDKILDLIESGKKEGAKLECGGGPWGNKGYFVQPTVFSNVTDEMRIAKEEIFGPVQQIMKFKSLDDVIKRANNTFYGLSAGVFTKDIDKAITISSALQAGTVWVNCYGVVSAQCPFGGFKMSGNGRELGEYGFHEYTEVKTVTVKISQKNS
The campaign covered roughly 220,000 compounds. About 16,000 (7.3%) were called active. About 25% were inconclusive and are not listed. Calls follow the shape of the dose curve; as a rule, active = well fitted inhibition curve with a large enough effect (not every such curve was filed as active); inconclusive = small, poorly fitted or top-dose-only effect, or another doubt; inactive = no such curve, though single readings can be large or run the other way. The full list was thinned out, with actives kept by preference.
Parameter call: string, one of yes (1) (active), no (0) (inactive)

Use these answered entries as a reference point.
{"Compound": "Cc1nn(CC#N)c(=O)n1N(C)c1ncc(C(F)(F)F)cc1Cl", "Assigned Label": "no (0)"}
{"Compound": "O=C(NNC(=S)Nc1ccccc1)c1cccc(S(=O)(=O)N2CCOCC2)c1", "Assigned Label": "yes (1)"}
{"Compound": "Cc1ccccc1NC(=O)CN1C(=O)N/C(=C\\c2cccn2-c2cccc(C(=O)O)c2)C1=O", "Assigned Label": "no (0)"}

Please state the recorded outcome for this compound: C/C(CCc1ccccc1)=N\NC(=O)c1ccc(CN2CCOCC2)cc1
yes (1)

Record request — test call for COc1ccc(NS(=O)(=O)c2ccc(NC(=S)NC(=O)/C=C/c3ccc(C)cc3)cc2)nn1
no (0)

Any idea what this test logged for CCc1nnc(NS(=O)(=O)c2ccc(NC(=S)NC(=O)/C=C/c3cccs3)cc2)s1 ?
yes (1)

Which outcome did this test record for the compound O=C(CN1C(=O)CCC1=O)Nc1ccc(S(=O)(=O)N2CCOCC2)cc1 ?
no (0)

Name the outcome recorded for COc1ccc(C(=O)CN2C(=O)NC(C)(c3ccc(C)cc3)C2=O)cc1OC (stereo unspecified) in the assay.
no (0)

----------
biological target: Aldehyde dehydrogenase 1A1 (Homo sapiens); test: qHTS Assay for Inhibitors of Aldehyde Dehydrogenase 1 (ALDH1A1); conditions: Purified ALDH1A1, NADH fluorescence, propionaldehyde substrate; series mostly up to 75.3 µM; also: potency is read from the fitted curve at half-maximal effect
Out of some 220,000 compounds screened, about 16,000 (7.3%) were called active. Roughly 25% stayed inconclusive and do not appear here. Many of the other results were omitted from the sample, so actives are more common in it than they were.
Measured Attribute: Potency

{"Molecule": "COc1ccc(F)c(-c2nc(CN3CCC(c4ccccc4)CC3)c(C)o2)c1", "Result": "inactive"}
{"Molecule": "N/C(=N\\OC(=O)Cc1ccccc1[N+](=O)[O-])c1ccc(Br)cc1", "Result": "inactive"}
{"Molecule": "O=C(NC1CC1)c1cccc(Br)c1", "Result": "inactive"}
{"Molecule": "COc1c(C)cc(C(=O)C2CCCN(S(=O)(=O)c3c(C)noc3C)C2)cc1C (stereo unspecified)", "Result": "inactive"}
{"Molecule": "CCN(CC(=O)NCCc1ccccc1)S(=O)(=O)c1ccccc1", "Result": "35.5 µM (active)"}

# context switch: different molecule, same Potency
GET /values?readout=Potency&item= O=C(NC(=S)Nc1ccc(S(=O)(=O)Nc2ncccn2)cc1)c1cccc(Br)c1
10 µM (active)

----------
molecular target: Aldehyde dehydrogenase 1A1 (Homo sapiens) (UniProt P00352); assay: qHTS Assay for Inhibitors of Aldehyde Dehydrogenase 1 (ALDH1A1); details: Purified ALDH1A1, NADH fluorescence, propionaldehyde substrate; series mostly up to 75.3 µM
The campaign covered roughly 220,000 compounds. About 16,000 (7.3%) were called active. Another 25% or so got no clear call; they are omitted. The call rests on the fitted dose curve; in most records, active means well fitted inhibition curve with a large enough effect (not every such curve was filed as active); inconclusive means small, poorly fitted or top-dose-only effect, or another doubt; inactive means no such curve, though single readings can be large or run the other way. The sample holds actives, similar compounds and a random draw of the others, so the mix is not that of the screen.
Assign a class; possible classes are 1 (active), -1 (inactive)

Use these answered entries as a reference point.
{"Compound": "COc1ccc(N(C(=O)c2cccnc2)S(=O)(=O)c2ccc3c(c2)n(C)c(=O)n3C)cc1", "Assigned Label": -1}
{"Compound": "CN1/C(=C\\C(=O)c2cccnc2Cl)C(C)(C)c2ccccc21", "Assigned Label": -1}
{"Compound": "Cc1cc2nc(C)n(CCCNC(=O)Nc3ccccc3)c2cc1C", "Assigned Label": -1}
{"Compound": "Cc1cccc(NC(=S)NCCN(C2CCCCC2)C2CCCC2)c1", "Assigned Label": -1}
{"Compound": "Cc1cc(C)nc(N(C#N)CC(=O)Nc2ccccc2)n1", "Assigned Label": 1}
{"Compound": "O=C(O)c1ccc2c(c1)C(=O)N(NC(=O)c1ccc(O)cc1)C2=O", "Assigned Label": -1}

Outcome logged for Cc1cc(C)c(C#N)c(SCC(=O)Nc2ccccc2)n1 in this assay:
-1

// outcome(item) with item = O=C(N/N=C/c1cccc([N+](=O)[O-])c1)C1CC(=O)N(c2ccc(Br)cc2)C1 (configuration not stated)
-1

State the result this test recorded for COc1cc(CNCCN(C)C)ccc1OCc1c(F)cccc1Cl .
-1

In this assay, the call recorded for O=C(NC1CC1)C1CCCN(C(=O)NC2CCCCC2)C1 (configuration not stated) was what?
-1

Dear colleague, could you share the recorded outcome for CCOC(=O)C1(Cc2ccc(Cl)cc2)CCN(C(=O)C2=NNC(=O)CC2)CC1 when you have a moment?
-1
